assay: A CellTox Green Cytotoxicity Assay to monitor cytotoxicity in HEK293 cells - 40 hour (AID 1224871); conditions: CellTox Green fluorescence; series mostly up to 76.8 µM; note: nearly all actives have a fitted effect of over 45% in size
Inconclusive results are not listed. Calls of active or inactive are those of the source. Calls come from the whole dose curve; as a rule, active = well fitted activation curve with a large enough effect in the repeat runs; inconclusive = weak or mixed curves; inactive = flat fitted curve, though single readings scatter.
Result category, one only: class 1 = active, class 0 = inactive

[Q] Could you please tell me the result logged for COc1ccc(C(=O)CC(=O)c2ccc(C(C)(C)C)cc2)cc1 in this assay?
[A] class 0

[Q] Could you please tell me the result logged for COc1ccccc1/C=C/C=O in this assay?
[A] class 0

[Q] Could you please tell me the result logged for O=[N+]([O-])c1ccc2c(c1)Cc1ccccc1-2 in this assay?
[A] class 0

[Q] Could you please tell me the result logged for CN(C)CCC=C1c2ccccc2CCc2ccccc21 in this assay?
[A] class 0

[Q] Could you please tell me the result logged for CNCCCC12CCC(c3ccccc31)c1ccccc12 in this assay?
[A] class 1

[Q] Could you please tell me the result logged for C=C(C)C(=O)OCCOC(=O)C(=C)C in this assay?
[A] class 0

[Q] Could you please tell me the result logged for CCCCC(CC)COP(=O)(OCC(CC)CCCC)OCC(CC)CCCC (stereo not given) in this assay?
[A] class 0

[Q] Could you please tell me the result logged for CC(C)OB(OC(C)C)OC(C)C in this assay?
[A] class 0

[Q] Could you please tell me the result logged for CC(=O)c1ccccn1 in this assay?
[A] class 0

[Q] Could you please tell me the result logged for CC(C(=O)O)c1cccc(C(=O)c2ccccc2)c1 (stereo not given) in this assay?
[A] class 0

[Q] Could you please tell me the result logged for COC(=O)c1ccccc1 in this assay?
[A] class 0

[Q] Could you please tell me the result logged for COC(=O)Nc1nc2ccc(S(=O)c3ccccc3)cc2[nH]1 (stereo not given) in this assay?
[A] class 0

[Q] Could you please tell me the result logged for CCCCOCCOCCO in this assay?
[A] class 0

[Q] Could you please tell me the result logged for CCCCC(CC)COC(=O)c1ccc(N(C)C)cc1 (stereo not given) in this assay?
[A] class 0

[Q] Could you please tell me the result logged for COc1ccc(OC)c(C(O)CNC(=O)CN)c1 (stereo not given) in this assay?
[A] class 0

[Q] Could you please tell me the result logged for CN1C(C(=O)Nc2ccccn2)=C(O)c2ccccc2S1(=O)=O in this assay?
[A] class 0

[Q] Could you please tell me the result logged for Cc1[nH]c(=O)c(C#N)cc1-c1ccncc1 in this assay?
[A] class 0

[Q] Could you please tell me the result logged for COc1cc([C@@H]2c3cc4c(cc3[C@H](O)[C@H]3COC(=O)[C@H]23)OCO4)cc(OC)c1OC in this assay?
[A] class 0

[Q] Could you please tell me the result logged for O=C(O)c1ccccc1Nc1cccc(C(F)(F)F)c1 in this assay?
[A] class 0

[Q] Could you please tell me the result logged for Nc1ncn([C@@H]2O[C@H](CO)[C@@H](O)[C@H]2O)c(=O)n1 in this assay?
[A] class 0

The origin of these recorded values is PubChem BioAssay (Tox21).
